All figures here come from patent US20070167466A1.

- target: CDK2 (p33^cdk2, cyclin E) (Homo sapiens, UniProt P24941)
- protocol-description: CDK inhibition assay, p33^cdk2 kinase, histone H1 phosphorylation;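 also: Baculovirus-expressed kinase/cyclin complex from Sf9 cell extract, 10 min at 30 °C, phosphoproteins separated by SDS gel and quantified by image analysis, activity relative to DMSO control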
Please use Condition met for IC50 under 10 µM and Condition not met for everything else, ties included.

Sample answers from the record:
1. CC(C)c1n[nH]c2c(NCc3ccc(O)cc3)ncnc12 [4-hydroxybenzylamino / isopropyl]	Condition met
2. Cc1n[nH]c2c(NCc3ccccc3O)ncnc12 [2-hydroxybenzylamino / methyl]	Condition met
3. Cc1cccc(CNc2ncnc3c(C(C)C)n[nH]c23)c1	Condition met

Shifting focus to the molecule that follows.
Lab log: compare recorded IC50 with 10 µM; is it strictly lower for Cc1cccc(CNc2ncnc3c(C)n[nH]c23)c1 ?
Condition not met

---

- Test system: MCF7 (human breast adenocarcinoma)
- protocol-description: In vitro cytotoxic activity, Calcein AM, three days
- Type: cell-based
- cond: Homo sapiens, MCF7, 72 h
quantity-name: IC50 (µM)
# output: bare number, implied unit µM

The following molecules have reported results that may help.
1) Cc1cccc(CNc2ncnc3c(C(C)C)n[nH]c23)c1	76
2) CCc1n[nH]c2c(NCc3cccc(O)c3)ncnc12 [3-hydroxybenzylamino / ethyl]	111
3) CCc1n[nH]c2c(NC3CCC3)ncnc12	82
4) CC(C)c1n[nH]c2c(NCc3cccc(Cl)c3)ncnc12	24
5) Cn1cnc2c(NCc3ccccc3)nc(NCCO)nc21 [Olomoucine, reference compound]	132

# value lookup — system MCF7 (human breast adenocarcinoma), readout IC50, item CC(C)c1n[nH]c2c(NCc3ccccc3)ncnc12
55

# value lookup — system MCF7 (human breast adenocarcinoma), readout IC50, item C=CCNc1ncnc2c(C(C)C)n[nH]c12
64

---

- target: CDK2 (p33^cdk2, cyclin E) (Homo sapiens)
- protocol-description: CDK inhibition assay, p33^cdk2 kinase, histone H1 phosphorylation
pIC50: −log10 of the molar value.
Label scheme for pIC50: lower than 5 is Not fulfilled, 5 and above is Fulfilled.

1) CCc1n[nH]c2c(Nc3ccc(Cl)c(N)c3)ncnc12	Not fulfilled

Identify whether the reported pIC50 of the following compound is 5 or greater: CCc1n[nH]c2c(NCc3ccco3)ncnc12
Fulfilled

Identify whether the reported pIC50 of the following compound is 5 or greater: CCc1n[nH]c2c(NC3CCCCC3)ncnc12
Not fulfilled

---

- target: CDK2 (p33^cdk2, cyclin E) (Homo sapiens)
- protocol-description: CDK inhibition assay, p33^cdk2 kinase, histone H1 phosphorylation
Below, each entry is listed with its recorded pIC50.
Entry type: numeric. Quantity: pIC50, the -log10 of concentration in molar units.

1. CCc1n[nH]c2c(NCc3cccc(Cl)c3)ncnc12 [3-chlorobenzylamino / ethyl]	4.99
2. CC(C)c1n[nH]c2c(Nc3ccc(O)c(C(=O)O)c3)ncnc12 [3-carboxy-4-hydroxyanilino / isopropyl]	5.38
3. CC(C)c1n[nH]c2c(NCc3cccc(Cl)c3)ncnc12 [3-chlorobenzylamino / isopropyl]	5.03
4. Cc1n[nH]c2c(Nc3ccc(Cl)cc3)ncnc12 [4-chloroanilino / methyl]	4.55
5. CC(C)c1n[nH]c2c(NCc3ccco3)ncnc12 [furfurylamino / isopropyl]	6.10

With those in mind, consider the next compound.
# value lookup — system CDK2 (p33^cdk2, cyclin E) (Homo sapiens), readout pIC50, item Cc1n[nH]c2c(NC3CCCCC3)ncnc12 [cyclohexylamino / methyl]
4.49
